Data provenance is ChEMBL document CHEMBL1121923.

# Test system: Calf thymus DNA
# Assay protocol: Apparent binding constant calf thymus DNA-drug complex
# Type: nucleic-acid assay
# Conditions: Bos taurus
*1 amine or outer side, *2 acyl side, *3 side chain or, on linkers, in order; H or OH if unused. Where a SMILES comes first, the peptide text is derived from it. Bridges are numbered along the chain shown (N, C = ends). Roman numbers before positions name the chains, in order. [ ]: non-standard residue; d: D form. Actinocin(9to1) = Cc1c2oc3c(C)ccc(C(=O)[*:1])c3nc-2c(C(=O)[*:2])c(N)c1=O; NMeV = CN[C@H](C(=O)O)C(C)C; Sar = CNCC(=O)O

[
  {
    "Molecule": "COc1cc(C(=O)N[C@@H]2C(=O)N[C@H](C(C)C)C(=O)N3CCC[C@@H]3C(=O)N(C)CC(=O)N(C)[C@@H](C(C)C)C(=O)O[C@@H]2C)c2nc3c(C(=O)N[C@H]4C(=O)N[C@@H](C(C)C)C(=O)N5CCC[C@H]5C(=O)N(C)CC(=O)N(C)[C@H](C(C)C)C(=O)O[C@H]4C)c(N)c(=O)c(C)c-3oc2c1C",
    "K app / M⁻¹": "7.7e+06"
  },
  {
    "Molecule": "Cc1c2oc3c(C)c(O)c(N)c(C(=O)N[C@H]4C(=O)N[C@@H](C(C)C)C(=O)N5CCC[C@H]5C(=O)N(C)CC(=O)N(C)[C@H](C(C)C)C(=O)O[C@H]4C)c3nc-2c(C(=O)N[C@@H]2C(=O)N[C@H](C(C)C)C(=O)N3CCC[C@@H]3C(=O)N(C)CC(=O)N(C)[C@@H](C(C)C)C(=O)O[C@@H]2C)c/c1=N/Cc1cccc(Oc2ccccc2)c1",
    "K app / M⁻¹": "8.8e+06"
  },
  {
    "Molecule": "Cc1c2oc3c(C)ccc(C(=O)N[C@@H]4C(=O)N[C@H](C(C)C)C(=O)N5CCC[C@H]5C(=O)N(C)CC(=O)N(C)[C@@H](C(C)C)C(=O)O[C@@H]4C)c3nc-2c(C(=O)N[C@@H]2C(=O)N[C@H](C(C)C)C(=O)N3CCC[C@H]3C(=O)N(C)CC(=O)N(C)[C@@H](C(C)C)C(=O)O[C@@H]2C)c(N)c1=O [DACTINOMYCIN] (I: T[dV]P[Sar][NMeV] / II: T[dV]P[Sar][NMeV]; ester I:1-I:C, II:1-II:C; linker I:N-II:N via Actinocin(9to1))",
    "K app / M⁻¹": "2.3e+07"
  },
  {
    "Molecule": "Cc1c2oc3c(C)c(O)c(N)c(C(=O)N[C@H]4C(=O)N[C@@H](C(C)C)C(=O)N5CCC[C@H]5C(=O)N(C)CC(=O)N(C)[C@H](C(C)C)C(=O)O[C@H]4C)c3nc-2c(C(=O)N[C@@H]2C(=O)N[C@H](C(C)C)C(=O)N3CCC[C@@H]3C(=O)N(C)CC(=O)N(C)[C@@H](C(C)C)C(=O)O[C@@H]2C)c/c1=N/Cc1ccc[nH]1",
    "K app / M⁻¹": "9.2e+07"
  },
  {
    "Molecule": "Cc1c2oc3c(C)c(OCc4ccc([N+](=O)[O-])cc4)cc(C(=O)N[C@@H]4C(=O)N[C@H](C(C)C)C(=O)N5CCC[C@@H]5C(=O)N(C)CC(=O)N(C)[C@@H](C(C)C)C(=O)O[C@@H]4C)c3nc-2c(C(=O)N[C@H]2C(=O)N[C@@H](C(C)C)C(=O)N3CCC[C@H]3C(=O)N(C)CC(=O)N(C)[C@H](C(C)C)C(=O)O[C@H]2C)c(N)c1=O",
    "K app / M⁻¹": 100000
  },
  {
    "Molecule": "Cc1c2oc3c(C)c(O)c(N)c(C(=O)N[C@H]4C(=O)N[C@@H](C(C)C)C(=O)N5CCC[C@H]5C(=O)N(C)CC(=O)N(C)[C@H](C(C)C)C(=O)O[C@H]4C)c3nc-2c(C(=O)N[C@@H]2C(=O)N[C@H](C(C)C)C(=O)N3CCC[C@@H]3C(=O)N(C)CC(=O)N(C)[C@@H](C(C)C)C(=O)O[C@@H]2C)c/c1=N/Cc1ccco1",
    "K app / M⁻¹": "3.8e+06"
  }
]

====

# System: Calf thymus DNA
# Assay protocol: Apparent number of binding sites per base pairs in DNA
# Format: nucleic-acid assay
# Conditions: Bos taurus
Value kind: Bapp

[
  {
    "Test smiles": "Cc1c2oc3c(C)c(O)c(N)c(C(=O)N[C@H]4C(=O)N[C@@H](C(C)C)C(=O)N5CCC[C@H]5C(=O)N(C)CC(=O)N(C)[C@H](C(C)C)C(=O)O[C@H]4C)c3nc-2c(C(=O)N[C@@H]2C(=O)N[C@H](C(C)C)C(=O)N3CCC[C@@H]3C(=O)N(C)CC(=O)N(C)[C@@H](C(C)C)C(=O)O[C@@H]2C)c/c1=N/Cc1ccccc1",
    "Target": "Calf thymus DNA",
    "Value kind": "Bapp",
    "Obs value": 0.049
  },
  {
    "Test smiles": "Cc1c2oc3c(C)c(O)c(N)c(C(=O)N[C@H]4C(=O)N[C@@H](C(C)C)C(=O)N5CCC[C@H]5C(=O)N(C)CC(=O)N(C)[C@H](C(C)C)C(=O)O[C@H]4C)c3nc-2c(C(=O)N[C@@H]2C(=O)N[C@H](C(C)C)C(=O)N3CCC[C@@H]3C(=O)N(C)CC(=O)N(C)[C@@H](C(C)C)C(=O)O[C@@H]2C)c/c1=N/Cc1ccco1",
    "Target": "Calf thymus DNA",
    "Value kind": "Bapp",
    "Obs value": 0.055
  }
]

====

# System: Calf thymus DNA
# Assay protocol: Apparent binding constant against calf thymus DNA-drug complex; Not measurable
# Type: nucleic-acid assay
# Conditions: Bos taurus

[
  {
    "Test smiles": "Cc1c2oc3c(C)c(OC(=O)C45CC6CC(CC(C6)C4)C5)cc(C(=O)N[C@@H]4C(=O)N[C@H](C(C)C)C(=O)N5CCC[C@@H]5C(=O)N(C)CC(=O)N(C)[C@@H](C(C)C)C(=O)O[C@@H]4C)c3nc-2c(C(=O)N[C@H]2C(=O)N[C@@H](C(C)C)C(=O)N3CCC[C@H]3C(=O)N(C)CC(=O)N(C)[C@H](C(C)C)C(=O)O[C@H]2C)c(N)c1=O",
    "K app": "Not measurable"
  },
  {
    "Test smiles": "Cc1c2oc3c(C)c(OC(=O)Cc4ccc(Cl)c(Cl)c4)cc(C(=O)N[C@@H]4C(=O)N[C@H](C(C)C)C(=O)N5CCC[C@@H]5C(=O)N(C)CC(=O)N(C)[C@@H](C(C)C)C(=O)O[C@@H]4C)c3nc-2c(C(=O)N[C@H]2C(=O)N[C@@H](C(C)C)C(=O)N3CCC[C@H]3C(=O)N(C)CC(=O)N(C)[C@H](C(C)C)C(=O)O[C@H]2C)c(N)c1=O",
    "K app": "Not measurable"
  },
  {
    "Test smiles": "Cc1c2oc3c(C)c(OC(=O)c4ccccc4)cc(C(=O)N[C@@H]4C(=O)N[C@H](C(C)C)C(=O)N5CCC[C@@H]5C(=O)N(C)CC(=O)N(C)[C@@H](C(C)C)C(=O)O[C@@H]4C)c3nc-2c(C(=O)N[C@H]2C(=O)N[C@@H](C(C)C)C(=O)N3CCC[C@H]3C(=O)N(C)CC(=O)N(C)[C@H](C(C)C)C(=O)O[C@H]2C)c(N)c1=O",
    "K app": "Not measurable"
  }
]

====

# Tested on: Calf thymus DNA
# Assay protocol: Apparent binding constant against calf thymus DNA-drug complex; Not measurable
# Type: nucleic-acid assay
# Conditions: Bos taurus

[
  {
    "Test smiles": "Cc1c2oc3c(C)c(OC(=O)c4ccc5ccccc5c4)cc(C(=O)N[C@@H]4C(=O)N[C@H](C(C)C)C(=O)N5CCC[C@@H]5C(=O)N(C)CC(=O)N(C)[C@@H](C(C)C)C(=O)O[C@@H]4C)c3nc-2c(C(=O)N[C@H]2C(=O)N[C@@H](C(C)C)C(=O)N3CCC[C@H]3C(=O)N(C)CC(=O)N(C)[C@H](C(C)C)C(=O)O[C@H]2C)c(N)c1=O",
    "Target": "Calf thymus DNA",
    "K app": "Not measurable"
  },
  {
    "Test smiles": "CCCCCCCOc1cc(C(=O)N[C@@H]2C(=O)N[C@H](C(C)C)C(=O)N3CCC[C@@H]3C(=O)N(C)CC(=O)N(C)[C@@H](C(C)C)C(=O)O[C@@H]2C)c2nc3c(C(=O)N[C@H]4C(=O)N[C@@H](C(C)C)C(=O)N5CCC[C@H]5C(=O)N(C)CC(=O)N(C)[C@H](C(C)C)C(=O)O[C@H]4C)c(N)c(=O)c(C)c-3oc2c1C",
    "Target": "Calf thymus DNA",
    "K app": "Not measurable"
  },
  {
    "Test smiles": "CCCCCCOc1cc(C(=O)N[C@@H]2C(=O)N[C@H](C(C)C)C(=O)N3CCC[C@@H]3C(=O)N(C)CC(=O)N(C)[C@@H](C(C)C)C(=O)O[C@@H]2C)c2nc3c(C(=O)N[C@H]4C(=O)N[C@@H](C(C)C)C(=O)N5CCC[C@H]5C(=O)N(C)CC(=O)N(C)[C@H](C(C)C)C(=O)O[C@H]4C)c(N)c(=O)c(C)c-3oc2c1C",
    "Target": "Calf thymus DNA",
    "K app": "Not measurable"
  }
]
